tested on: Trypanosoma brucei; experiment: Antitrypanosomal activity against Trypanosoma brucei.; assay type: functional, organism-based
assay.metric: pIC50
Scale: pIC50 equals -log10([C]), with [C] in mol/L.

compound	target.of.assay	assay.metric	reported.result
COc1ccc2c(c1)cc1c3cc(C#N)ccc3nc-1n2C	Trypanosoma brucei	pIC50	6.00

**Q:** Request the reported pIC50 associated with Cn1c2nc3ccc(C#N)cc3c-2cc2cc(F)ccc21
**A:** 5.40

**Q:** GET /values?readout=pIC50&item= CSc1ccc2c(c1)cc1c3ccccc3nc-1n2C
**A:** 6.10

**Q:** Which value of pIC50 has been reported for C[n+]1c2ccccc2cc2[n-]c3ccccc3c21 [CRYPTOLEPINE] in the records?
**A:** 5.52

**Q:** Quick one: pIC50 for Cn1c2nc3ccccc3c-2cc2cc(Br)ccc21 ?
**A:** 6.00

**Q:** I'd like to know its pIC50. The compound in question is Cn1c2nc3ccccc3c-2cc2ccc(Cl)cc21
**A:** 5.03

**Q:** Requested field: pIC50. Item: Cn1c2nc3ccccc3c-2cc2ccc(Br)cc21
**A:** 4.56

**Q:** Bench note: what pIC50 did Cn1c2nc3ccccc3c-2cc2cc([N+](=O)[O-])ccc21 show?
**A:** 6.15

**Q:** What does the data say about its pIC50? Entry: COc1ccc2c(c1)cc1c3ccccc3nc-1n2C
**A:** 6.52

**Q:** Returns the measured pIC50 for the input compound. Input: COc1ccc2cc3c4ccccc4nc-3n(C)c2c1
**A:** 6.40

**Q:** Fill blank: measured pIC50 of the compound Cn1c2nc3ccccc3c-2cc2cc(I)ccc21 is ____.
**A:** 6.00

###

test system: Trypanosoma brucei; assay: Antitrypanosomal activity against Trypanosoma brucei.; assay type: functional, organism-based
// reported pIC50 per item
Convention used: pIC50 is expressed as -log10 of the molar concentration.

The following compounds have reported results that may help.
compound	target.of.assay	pIC50
Cc1ccc2c(c1)cc1c3ccccc3nc-1n2C	Trypanosoma brucei	7.00
COc1cccc2c1cc1c3ccccc3nc-1n2C	Trypanosoma brucei	5.89
Cn1c2nc3ccccc3c-2cc2ccc(C(F)(F)F)cc21	Trypanosoma brucei	4.78

**Q:** Which value of pIC50 has been reported for Cn1c2nc3ccccc3c-2cc2cc(F)ccc21 in the records?
**A:** 4.84

**Q:** Need pIC50 of Cn1c2nc3ccccc3c-2cc2cc(Cl)ccc21 , thanks.
**A:** 5.89

**Q:** Suppose we examine the compound Cn1c2nc3ccccc3c-2cc2cc(C#N)ccc21 ; what pIC50 value has been reported?
**A:** 5.40

**Q:** What value of pIC50 has been reported for the following compound? Cn1c2nc3ccccc3c-2cc2c(Br)cccc21
**A:** 4.78

**Q:** Reported pIC50 for Cn1c2nc3ccccc3c-2cc2ccccc21 [NEOCRYPTOLEPINE] : what is it?
**A:** 5.40

###

test system: MRC5; assay: Cytotoxicity against human diploid embryonic lung cell line MRC-5 using MTT assay; type: functional, cell-based
Measured pIC50 by item
# pIC50 is unitless: minus log10 of the molar concentration; print number only

# example entries with known answers
compound	pIC50
Cn1c2nc3ccccc3c-2cc2ccc(C(F)(F)F)cc21	4.74
Cn1c2nc3ccccc3c-2cc2cc(F)ccc21	4.82
COc1ccc2cc3c4ccccc4nc-3n(C)c2c1	5.46
Cn1c2nc3ccc(C#N)cc3c-2cc2cc(F)ccc21	4.96
Cn1c2nc3ccccc3c-2cc2ccccc21 [NEOCRYPTOLEPINE]	4.96

**Q:** I have this compound here, Cn1c2nc3ccccc3c-2cc2c(Br)cccc21 , and I need its recorded pIC50.
**A:** 4.80

**Q:** For the compound Cn1c2nc3ccccc3c-2cc2cc(I)ccc21 , what pIC50 is on record?
**A:** 4.80

**Q:** What value of pIC50 has been reported for the following compound? Cn1c2nc3ccccc3c-2cc2ccc(Cl)cc21
**A:** 4.81
